Here the recorded LD50 is given for each entry.
# Assay Overview: Acute toxicity test in mice
# Condition Details: mouse, in vivo, ip; intraperitoneal, in DMSO, five mice per group

# Compound, Units Label, Limit Operator, LD50
rows = [
    ("O=C([C@@H]1CCCN1C(=O)CCCOc1ccccc1CCc1ccccc1)N1CCCC1 [compound 37]", "mg/kg", "=", 350),
    ("O=C([C@@H]1CCCN1C(=O)CCCOc1ccccc1)N1CCCC1 [compound 21]", "mg/kg", "=", 350),
    ("O=C(/C=C/c1ccccc1)c1ccccc1OCCCC(=O)N1CCC[C@H]1C(=O)N1CCCC1 [compound 42]", "mg/kg", "=", 360),
    ("CC(C)C[C@H](NC(=O)CCCc1ccccc1)C(=O)N1CCCC1 [Compound No. 2]", "mg/kg", ">", 600),
    ("C=CCc1ccccc1OCCCC(=O)N1CCC[C@H]1C(=O)N1CCCC1 [compound 26]", "mg/kg", "=", 390),
]
